Can you tell me IC50 for the items I'm about to list?
# Tested on: A375P tumor cells
# protocol description: Cell growth inhibition assay (CellTiter-Glo), A375P
# measurement conditions: Homo sapiens, 72 h, read-out: Activity in A375P Tumor Cells
Where a name gives a salt, the structure may show the parent alone.

>  <molecule>
CCNc1nc(-c2cc(C)cc(OC)c2)c(-c2ccnc(Nc3ccc(N4CCN(C(C)=O)CC4)nc3)n2)s1 [Example 36]

>  <metric>
IC50

>  <observed measurement>
< 500 nM

$$$$
>  <molecule>
CCNc1nc(-c2cc(OC)cc(OC)c2)c(-c2ccnc(Nc3ccc(N4CCN(CCO)CC4)nc3)n2)o1 [Example 108]

>  <metric>
IC50

>  <observed measurement>
500 to 5000 nM

$$$$
>  <molecule>
CCNc1nc(-c2cc(C)cc(OC)c2)c(-c2ccnc(Nc3ccc(N4CCOCC4)nc3)n2)s1 [Example 35]

>  <metric>
IC50

>  <observed measurement>
< 500 nM

$$$$
>  <molecule>
COc1cc(OC)cc(-c2nc(NC3CC3)sc2-c2ccnc(Nc3ccc(OCCN4CCCC4=O)c(F)c3)n2)c1 [Example 16, trifluoroacetate]

>  <metric>
IC50

>  <observed measurement>
500 to 5000 nM

$$$$
>  <molecule>
CCNc1nc(-c2cc(OC)cc(OC)c2)c(-c2ccnc(Nc3cc(F)c(N4CCN(CCS(C)(=O)=O)CC4)c(F)c3)n2)o1 [Example 91]

>  <metric>
IC50

>  <observed measurement>
500 to 5000 nM

$$$$
>  <molecule>
CCc1nc(-c2cccc(CO)c2)c(-c2ccnc(Nc3ccc(N4CCOCC4)c(F)c3)n2)s1 [Example 67]

>  <metric>
IC50

>  <observed measurement>
< 500 nM

$$$$

I'm hoping you can list IC50 for every molecule here, please.
1. CCNc1nc(-c2cc(C)cc(OC)c2)c(-c2ccnc(Nc3ccc(N4CCS(=O)(=O)CC4)nc3)n2)s1 [Example 34]
2. CCNc1nc(-c2cc(OC)cc(OC)c2)c(-c2ccnc(Nc3cc(OC)c(OC4CCN(CCS(C)(=O)=O)CC4)c(OC)c3)n2)o1 [Example 133]
3. CCNc1nc(-c2cc(C)cc(OC)c2)c(-c2ccnc(Nc3ccc(N4CCN(C(C)=O)CC4)nc3)n2)o1 [Example 70]
4. CCNc1nc(-c2ccc(Cl)c(C)c2)c(-c2ccnc(Nc3ccc(OCCN4CCCC4)c(Cl)c3)n2)s1 [Example 54]
5. CCNc1nc(-c2cc(C)cc(OC)c2)c(-c2ccnc(Nc3ccc(N4CCOCC4)c(F)c3)n2)o1.O=C(O)C(F)(F)F [Example 129]
6. CCNc1nc(-c2cc(OC)cc(OC)c2)c(-c2ccnc(Nc3ccc(N4CCOCC4)c(F)c3)n2)o1 [Example 118]

Reply:
["< 500 nM", "500 to 5000 nM", "< 500 nM", "500 to 5000 nM", "500 to 5000 nM", "500 to 5000 nM"]

I'm hoping you can list IC50 for every molecule here, please.
1. CCNc1nc(-c2cc(OC)cc(OC)c2)c(-c2ccnc(Nc3ccc(OC4CCN(CCO)CC4)c(F)c3)n2)o1 [Example 124]
2. CCNc1nc(-c2cc(OC)cc(OC)c2)c(-c2ccnc(Nc3ccc(N4CCN(CCF)CC4)c(F)c3)n2)s1 [Example 8]

Reply:
["500 to 5000 nM", "500 to 5000 nM"]

---

pIC50: −log10 of the molar value. Structures can show the parent of a compound that is named as a salt.
Entries with reported pIC50 on EGFR (Homo sapiens, UniProt P00533)
Sequence (P00533 25-1210): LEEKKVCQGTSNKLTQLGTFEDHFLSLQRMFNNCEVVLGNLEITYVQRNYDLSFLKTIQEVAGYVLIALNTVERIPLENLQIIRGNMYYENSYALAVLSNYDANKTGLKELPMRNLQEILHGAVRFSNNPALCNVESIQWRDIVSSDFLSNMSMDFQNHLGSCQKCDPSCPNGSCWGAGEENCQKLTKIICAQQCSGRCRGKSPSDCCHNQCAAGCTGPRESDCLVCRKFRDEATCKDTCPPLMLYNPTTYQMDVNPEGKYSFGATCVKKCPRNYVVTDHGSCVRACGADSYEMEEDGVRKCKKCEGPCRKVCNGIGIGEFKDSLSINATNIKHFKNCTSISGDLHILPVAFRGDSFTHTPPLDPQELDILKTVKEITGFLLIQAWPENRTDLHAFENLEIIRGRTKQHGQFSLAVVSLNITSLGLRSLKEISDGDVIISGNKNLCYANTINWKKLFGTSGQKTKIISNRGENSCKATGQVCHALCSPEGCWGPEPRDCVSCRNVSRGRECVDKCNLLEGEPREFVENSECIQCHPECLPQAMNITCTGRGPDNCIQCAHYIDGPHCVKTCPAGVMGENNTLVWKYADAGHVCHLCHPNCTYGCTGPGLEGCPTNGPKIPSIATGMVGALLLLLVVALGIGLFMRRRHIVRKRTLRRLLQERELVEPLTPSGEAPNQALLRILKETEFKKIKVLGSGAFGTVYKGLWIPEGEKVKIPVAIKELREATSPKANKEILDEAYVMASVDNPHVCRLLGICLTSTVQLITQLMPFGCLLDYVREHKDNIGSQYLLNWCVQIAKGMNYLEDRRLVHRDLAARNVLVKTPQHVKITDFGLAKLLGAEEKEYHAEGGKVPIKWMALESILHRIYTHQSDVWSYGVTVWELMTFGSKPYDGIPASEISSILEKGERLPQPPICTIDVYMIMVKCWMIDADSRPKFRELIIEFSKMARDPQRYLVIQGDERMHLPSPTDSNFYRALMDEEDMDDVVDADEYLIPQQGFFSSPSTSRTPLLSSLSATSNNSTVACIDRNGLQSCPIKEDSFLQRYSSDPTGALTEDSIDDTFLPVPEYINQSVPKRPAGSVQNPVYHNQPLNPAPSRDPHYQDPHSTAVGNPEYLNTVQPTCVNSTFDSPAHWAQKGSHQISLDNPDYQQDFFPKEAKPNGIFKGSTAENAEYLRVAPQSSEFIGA

As a guide, the following entries are already answered.
>  <compound>
CCNc1nc(-c2cc(C)cc(OC)c2)c(-c2ccnc(Nc3ccc(N4CCN(CCF)CC4)c(F)c3)n2)s1

>  <observed measurement>
< 6.00

$$$$
>  <compound>
CCNc1nc(-c2cccc(O)c2)c(-c2ccnc(Nc3ccc(OCCN4CCCC4)c(Cl)c3)n2)s1

>  <observed measurement>
> 7.00

$$$$
>  <compound>
COCCNc1nc(-c2cccc(OC)c2)c(-c2ccnc(Nc3ccc(N4CCOCC4)c(Cl)c3)n2)s1 [Example 43, hydrochloride]

>  <observed measurement>
> 7.00

$$$$
>  <compound>
COc1cc(-c2nc(N3CCCC3)sc2-c2ccnc(Nc3ccc(OCCN4CCCC4)c(F)c3)n2)ccc1Cl

>  <observed measurement>
6.00 to 7.00

$$$$
>  <compound>
CCNc1nc(-c2cc(OC)cc(OC)c2)c(-c2ccnc(Nc3ccc(OC4CCN(CCO)CC4)c(F)c3)n2)o1

>  <observed measurement>
< 6.00

$$$$
>  <compound>
CCNc1nc(-c2cc(C)cc(OC)c2)c(-c2ccnc(Nc3ccc(N4CCN(C(C)=O)CC4)nc3)n2)s1

>  <observed measurement>
< 6.00

$$$$

I'm hoping you can list pIC50 for every compound here, please.
1. CCNc1nc(-c2cc(OC)cc(OC)c2)c(-c2ccnc(Nc3ccc(N4CCN5CCOC[C@H]5C4)nc3)n2)o1
2. CCc1nc(-c2cc(O)cc(OC)c2)c(-c2ccnc(Nc3ccc(OC4CCN(CCS(C)(=O)=O)CC4)c(F)c3)n2)s1 [Example 74, trifluoroacetic acid salt]

Reply:
1: < 6.00; 2: < 6.00

---

# Tested on: A375P tumor cells
# protocol description: Cell growth inhibition assay (CellTiter-Glo), A375P;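 note: total ATP luminescence used as proxy for cell number, serial threefold compound dilutions at 0.2% DMSO, growth inhibition expressed versus DMSO vehicle-treated wells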
# measurement conditions: Homo sapiens, 72 h, read-out: Activity in A375P Tumor Cells
metric: IC50

As a guide, the following entries are already answered.
>  <molecule>
COc1cc(C)cc(-c2nc(C(C)C)oc2-c2ccnc(Nc3ccc(N4CCOCC4)nc3)n2)c1 [Example 99]

>  <metric>
IC50

>  <observed measurement>
500 to 5000 nM

$$$$
>  <molecule>
CCc1nc(-c2cc(C)cc(CO)c2)c(-c2ccnc(Nc3ccc(N4CCN(S(C)(=O)=O)CC4)nc3)n2)s1 [Example 66]

>  <metric>
IC50

>  <observed measurement>
< 500 nM

$$$$
>  <molecule>
COc1cc(OC)cc(-c2nc(NC3CCC3)sc2-c2ccnc(Nc3ccc(OC4CCN(CCS(C)(=O)=O)CC4)c(F)c3)n2)c1 [Example 22]

>  <metric>
IC50

>  <observed measurement>
< 500 nM

$$$$
>  <molecule>
CCNc1nc(-c2cc(OC)cc(OC)c2)c(-c2ccnc(Nc3ccc(OC4CCN(CCS(C)(=O)=O)CC4)c(C)c3)n2)o1 [Example 87]

>  <metric>
IC50

>  <observed measurement>
500 to 5000 nM

$$$$
>  <molecule>
CCNc1nc(-c2cc(OC)cc(OC)c2)c(-c2ccnc(Nc3ccc(OC4CCN(CCS(C)(=O)=O)CC4)c(OC)c3)n2)o1 [Example 95]

>  <metric>
IC50

>  <observed measurement>
500 to 5000 nM

$$$$
>  <molecule>
COc1cc(C)cc(-c2nc(C(C)C)sc2-c2ccnc(Nc3ccc(N4CCN(CCS(C)(=O)=O)CC4)c(F)c3)n2)c1 [Example 62]

>  <metric>
IC50

>  <observed measurement>
< 500 nM

$$$$
>  <molecule>
COc1cc(C)cc(-c2nc(CNS(C)(=O)=O)sc2-c2ccnc(Nc3ccc(N4CCN(C(C)=O)CC4)nc3)n2)c1 [Example 64]

>  <metric>
IC50

>  <observed measurement>
< 500 nM

$$$$
>  <molecule>
CCNc1nc(-c2cccc(Cl)c2)c(-c2ccnc(Nc3ccc(OCCN(C)C)c(Cl)c3)n2)s1 [Example 46]

>  <metric>
IC50

>  <observed measurement>
< 500 nM

$$$$
>  <molecule>
CCNc1nc(-c2cc(C)cc(OC)c2)c(-c2ccnc(Nc3ccc(N4CCN(CCF)CC4)c(F)c3)n2)o1 [Example 128]

>  <metric>
IC50

>  <observed measurement>
500 to 5000 nM

$$$$
>  <molecule>
CCNc1nc(-c2cc(C)cc(OC)c2)c(-c2ccnc(Nc3ccc4c(c3)CCN4C(C)=O)n2)s1 [Example 30]

>  <metric>
IC50

>  <observed measurement>
< 500 nM

$$$$

I'm hoping you can list IC50 for every molecule here, please.
1. CCNc1nc(-c2cc(OC)ccn2)c(-c2ccnc(Nc3ccc(OCCN4CCCC4)c(Cl)c3)n2)s1 [Example 57]
2. CCNc1nc(-c2cc(OC)cc(OC)c2)c(-c2ccnc(Nc3ccc(N4CCN(C)CC4)c(Cl)c3)n2)s1 [Example 11]
3. COc1cccc(-c2nc(C(C)C)sc2-c2ccnc(Nc3ccc(OC4CCN(C(C)C)CC4)c(F)c3)n2)c1 [Example 59]
4. CCNc1nc(-c2cc(OC)cc(OC)c2)c(-c2ccnc(Nc3ccc(OCCN4CCOCC4)c(F)c3)n2)s1 [Example 13]

Reply:
1. < 500 nM
2. < 500 nM
3. 500 to 5000 nM
4. 500 to 5000 nM
